# measured_target: T1, 4Ig-B7H3 (human, UniProt Q5ZPR3 27-461, limits assumed)
# T1 construct: also called 4Ig-B73H3
# T1 sequence (looked up): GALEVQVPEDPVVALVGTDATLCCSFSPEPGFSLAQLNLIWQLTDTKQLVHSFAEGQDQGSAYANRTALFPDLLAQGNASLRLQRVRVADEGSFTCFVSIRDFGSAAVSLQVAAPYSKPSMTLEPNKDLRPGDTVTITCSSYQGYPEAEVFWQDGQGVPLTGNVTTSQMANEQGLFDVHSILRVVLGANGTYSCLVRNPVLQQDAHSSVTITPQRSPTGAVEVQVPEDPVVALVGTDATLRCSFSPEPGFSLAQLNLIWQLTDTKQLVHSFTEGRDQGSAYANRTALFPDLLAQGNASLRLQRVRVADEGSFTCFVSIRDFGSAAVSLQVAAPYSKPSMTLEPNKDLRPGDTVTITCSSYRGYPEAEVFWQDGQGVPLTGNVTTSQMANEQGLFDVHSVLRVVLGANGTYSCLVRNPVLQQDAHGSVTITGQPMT
# protocol_text: SPR (Biacore), scFv; antigen not given
The following binders are listed with their measured kon values.
Please reply with the bare figure in M⁻¹ s⁻¹ and do not write the unit itself.

binder="hu8H9 H3L3 scFv (scFv, also called parental hu8H9 H3L3; not shown: FLAG and His tags) scFv: QVQLVQSGAEVVKPGASVKLSCKASGYTFTNYDINWVRQRPEQGLEWIGWIFPGDGSTQYNEKFKGKATLTTDTSTSTAYMELSSLRSEDTAVYFCARQTTATWFAYWGQGTLVTVSSGGGGSGGGGSGGGGSEIVMTQSPATLSVSPGERVSLSCRASQSISDYLHWYQQKSHESPRLLIKYASQSISGIPARFSGSGSGSEFTLTINSVEPEDVGVYYCQNGHSFPLTFGQGTKLELKR" metric=kon unit_tag="M⁻¹ s⁻¹" numeric_result=6380
binder="hu8H9 3.1 scFv (scFv, not shown: FLAG and His tags) scFv: QVQLVQSGAEVVKPGASVKLSCKTSGYTFTNYDINWVRQRPGQGLEWIGWIFPGDDSTQYNEKFKGKATLTTDTSTSTAYMELSSLRSEDTAVYFCARQTTGTWFAYWGQGTLVTVSSGGGGSGGGGSGGGGSEIVMTQSPATLSVSPGERVTLSCRASQSISDYLYWYQQKSHESPRLLIKYASQSISGIPARFSGSGSGSEFTLTINSVEPEDVGVYYCQNGHSFPLTFGQGTKLELKR" metric=kon unit_tag="M⁻¹ s⁻¹" numeric_result=104000
binder="hu8H9 5.1 scFv (scFv, not shown: FLAG and His tags) scFv: QVQLVQSGAEVVKPGASVKVSCKTSGYTFTNYDINWVRQRPGQGLEWIGWIFPGDDSTQYNEKFKGRVTMTTDTSTSTVYMELSSLRSEDTAVYFCARQTTGTWFAYWGQGTLVTVSSGGGGSGGGGSGGGGSEIVMTQSPATLSVSPGERVTLSCRASQSISDYLYWYQQKSHQAPRLLIKYASQSISGIPARFSGSGSGSEFTLTISSLQPEDFGVYYCQNGHSFPLTFGQGTKLELKR" metric=kon unit_tag="M⁻¹ s⁻¹" numeric_result=58800

Turning now to a further binder:
Prompt: I am curious: what kon value has been reported for hu8H9 4.1 scFv (scFv, not shown: FLAG and His tags) scFv: QVQLVQSGAEVVKPGASVKVSCKASGYTFTNYDINWVRQRPEQGLEWIGWIFPGDGSTQYNEKFKGRVTMTTDTSTSTVYMELSSLRSEDTAVYFCARQTTATWFAYWGQGTLVTVSSGGGGSGGGGSGGGGSEIVMTQSPATLSVSPGERVTLSCRASQSISDYLHWYQQKSHQAPRLLIKYASQSISGIPARFSGSGSGSEFTLTISSLQPEDFGVYYCQNGHSFPLTFGQGTKLELKR ?
Completion: 12200
